- Protocol Details: label from the status in PepcDB records
Reported Property: protein production

1) HCSADLVLVEPTPLAVLDRIALVTDNGPFDPRKVELANGLAAAAGASLVLGHAVPADATEDQRATVRTYHEDLMGLCTVPVESNIVGTTTPAAMARAVSAADLVVVESDAAWWARLLDNREPQRIAGAFGGPAIVVRPQQAEGPSPVRRLLERVAF
failed
2) MNIAEQMKDVLKEEIKAAVLKAGLAEESQIPNVVLETPKDKTHGDYSTNMAMQLARVAKKAPRQIAEEIVAHFDKGKASIEKLDIAGPGFINFYMNNQYLTKLIPSVLEAGEAYG
failed
3) VIKFSSEDCGTCHKMSHYDANVAEELGAEFVSVMLQDTEAYRKYRKVLLKQYPNKEGMGWPTYLLVTDPEGDFTIHGELKGGMPKGEFRTRLGALLA
failed
